Origin of values: paper PMC4939597

Target: human RXFP4 (Homo sapiens, UniProt Q8TDU9)
Construct: expressed in transfected cells; host or cells: HEK293T
Sequence (Q8TDU9 whole entry): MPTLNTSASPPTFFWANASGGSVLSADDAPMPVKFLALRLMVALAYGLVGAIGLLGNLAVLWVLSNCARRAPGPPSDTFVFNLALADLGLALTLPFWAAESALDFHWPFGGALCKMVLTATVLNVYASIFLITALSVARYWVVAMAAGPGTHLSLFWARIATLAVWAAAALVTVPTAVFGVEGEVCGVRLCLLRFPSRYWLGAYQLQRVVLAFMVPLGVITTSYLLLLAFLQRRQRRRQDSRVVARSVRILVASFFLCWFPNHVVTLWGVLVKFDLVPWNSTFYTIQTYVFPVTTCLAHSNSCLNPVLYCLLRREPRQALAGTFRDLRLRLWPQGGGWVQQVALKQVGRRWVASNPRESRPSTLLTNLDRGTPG
Test: Receptor activation assay, CRE-controlled NanoLuc reporter
Assay type: cell-based
Details: HEK293T cells cotransfected with human RXFP4 and CRE-controlled NanoLuc reporter; 1.0 μM forskolin; 37 °C, 4 h; mean ± SE, n = 3; SEM
No end group written: not given here.
Decision: pEC50 RXFP4 compared against 9; not below it gives class 1, below it gives class 0.

Prompt: Textbook exercise: given the entry [R(B12)L,F(B20)Y,G(B23)A,G(B24)S]R3/I5: recombinant mature two-chain R3/I5 mutant (chain 1 RAAPYGVRLCGLEFIRAVIYTCASSRW; chain 2 QDLQTLCCTDGCSMTDLSALC; not fully specified; two-chain, three disulfides; A-chain N-terminal pyroglutamate likely; possible unprinted extra residues as in m2) , state whether its pEC50 RXFP4 is greater than or equal to 9.
Response: class 0

Prompt: Reported pEC50 RXFP4 at or above 9? [Y(B5)E,R(B12)L,F(B20)Y,G(B23)A,G(B24)S]R3/I5: recombinant mature two-chain R3/I5 mutant (chain 1 RAAPEGVRLCGLEFIRAVIYTCASSRW; chain 2 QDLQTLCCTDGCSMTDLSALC; disulfide (positions not given here); not fully specified; also: A-chain N-terminal pyroglutamate likely)
Response: class 0

Prompt: Hello, I need to know if [A(B20)G,S(B21)G]INSL5: recombinant mature two-chain INSL5 mutant (Insulin-like peptide INSL5 B … KESVRLCGLEYIRTVIYICGGSRW; Insulin-like peptide INSL5 A … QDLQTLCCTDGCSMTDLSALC; not fully specified; ends and bridges not checked; UniProt Q9Y5Q6 23-46; Q9Y5Q6 115-135, looked up, variant A20G S21G) has measured pEC50 RXFP4 not below 9. Thanks!
Response: class 0

Prompt: Decide: is the reported value of pEC50 RXFP4 for insulin-like peptide 5 (Insulin-like peptide INSL5 B … KESVRLCGLEYIRTVIYICASSRW; Insulin-like peptide INSL5 A … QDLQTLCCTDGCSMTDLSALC; UniProt Q9Y5Q6 23-46; Q9Y5Q6 115-135, looked up) [recombinant mature two-chain human INSL5, cognate agonist of RXFP4, reference compound] equal to or greater than 9?
Response: class 1

Prompt: Check the entry [Y(B17)F]INSL5: recombinant mature two-chain INSL5 mutant (Insulin-like peptide INSL5 B … KESVRLCGLEYIRTVIFICASSRW; Insulin-like peptide INSL5 A … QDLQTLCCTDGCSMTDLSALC; ends and bridges not checked; cysteine pairing not given here; UniProt Q9Y5Q6 23-46; Q9Y5Q6 115-135, looked up, variant Y17F) : does pEC50 RXFP4 equal or exceed 9?
Response: class 0

Prompt: Entry [L(B9)R]INSL5: recombinant mature two-chain INSL5 mutant (Insulin-like peptide INSL5 B … KESVRLCGREYIRTVIYICASSRW; Insulin-like peptide INSL5 A … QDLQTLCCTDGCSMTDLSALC; ends and bridges not checked; cysteine pairing not given here; UniProt Q9Y5Q6 23-46; Q9Y5Q6 115-135, looked up, variant L9R) : is its pEC50 RXFP4 no less than 9?
Response: class 1
